biological target: unphosphorylated c-FMS kinase (uFMS, Seq. ID no. 1) (Homo sapiens (Human)); assay: uFMS kinase assay (ADP production coupled to pyruvate kinase/lactate dehydrogenase); assay type: biochemical; settings: enzymatic assay, ATP 500 μM; read-out: uFMS
Sequence (P07333 538-972): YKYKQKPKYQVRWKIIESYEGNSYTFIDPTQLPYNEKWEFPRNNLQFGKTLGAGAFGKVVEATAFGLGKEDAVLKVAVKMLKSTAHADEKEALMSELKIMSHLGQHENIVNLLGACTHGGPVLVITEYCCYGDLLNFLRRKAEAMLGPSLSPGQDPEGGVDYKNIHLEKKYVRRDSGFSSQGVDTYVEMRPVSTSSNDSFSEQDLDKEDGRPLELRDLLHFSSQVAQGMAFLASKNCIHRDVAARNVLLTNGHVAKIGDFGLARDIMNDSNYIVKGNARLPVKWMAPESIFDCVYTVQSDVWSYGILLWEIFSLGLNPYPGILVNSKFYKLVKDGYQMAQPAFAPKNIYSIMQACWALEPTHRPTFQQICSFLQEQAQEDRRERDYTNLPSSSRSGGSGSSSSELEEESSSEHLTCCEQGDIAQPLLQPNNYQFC
pIC50: −log10 of the molar value.
PROPERTY_LABEL: pIC50

Examples with their reported pIC50 follow.
Request: Sample `Cn1cc(-c2cc(Oc3cc(F)c(NC(=O)N4CCN(C5COC5)C4=O)cc3Cl)ccn2)cn1` — what was its pIC50?
Result: 6.00 to 7.00

Request: # get_value(readout='pIC50', item= `Cc1cn(-c2cc(Oc3cnc(NC(=O)N4CCN(C)C4=O)cc3C)ccn2)cn1` )
Result: 6.00 to 7.00

Request: GET /values?readout=pIC50&item= `Cn1cnc(-c2cc(Oc3ccc(NC(=O)N4CCN(CC(F)(F)F)C4=O)nc3)ccn2)c1`
Result: 7.00 to 8.00

Take each entry in turn and give its pIC50.
1. Cn1cc(-c2cc(Oc3cc(F)c(NC(=O)N4CCN(C5CCOCC5)C4=O)cc3Cl)ccn2)cn1
2. CCN1CCN(C(=O)Nc2ccc(Oc3ccnc(C(=O)NC)c3)cn2)C1=O
3. Cc1cc(-c2cc(Oc3ccc(NC(=O)N4CCN(C5CCOCC5)C4=O)nc3)ccn2)ccn1
4. CCN1CCN(C(=O)Nc2cc(C)c(Oc3ccnc(-n4cnc(C)c4)c3)cn2)C1=O
5. Cc1nc(NC(=O)N2CCN(C3CCCCC3)C2=O)ccc1Oc1ccnc(-c2cnn(C)c2)c1

Result:
1. > 8.00
2. 6.00 to 7.00
3. 7.00 to 8.00
4. 7.00 to 8.00
5. > 8.00
